- test system: HLA-A*68:02
- experiment description: IEDB peptide-MHC binding, purified MHC/competitive/radioactivity; filed as Kd, often an IC50 or EC50 that approximates it; bounds were set here for any values at or beyond the usual limits of such assays
- assay conditions: source organism: Trypanosoma cruzi
Each entry below carries its reported Kd.
Value expressed in µM; do not type the unit.

LVGLLSNAAS	4.31

Then there is this sequence:
Query :: Need Kd, item FANYNFTLV
Result :: 1.02e-05

====

- test system: HLA-B*15:42
- experiment description: IEDB peptide-MHC binding, purified MHC/competitive/fluorescence; filed as Kd, often an IC50 or EC50 that approximates it; bounds were set here for any values at or beyond the usual limits of such assays
- assay conditions: source organism: Yersinia pestis CO92
readout kind: Kd

Query :: Which Kd is reported for this sequence? FRDRGQHVL
Result :: ≥ 5 µM

====

- test system: HLA-A*69:01
- experiment description: IEDB peptide-MHC binding, purified MHC/direct/fluorescence; filed as Kd, often an IC50 or EC50 that approximates it; bounds were set here for any values at or beyond the usual limits of such assays
- assay conditions: source organism: Bacillus anthracis
readout kind: Kd

Query :: Checklist item: Kd tested on HLA-A*69:01, entry MSDIFASEV , value?
Result :: ≤ 1 nM

====

- test system: HLA-A*02:19
- experiment description: IEDB peptide-MHC binding, purified MHC/direct/fluorescence; filed as Kd, often an IC50 or EC50 that approximates it; bounds were set here for any values at or beyond the usual limits of such assays
- assay conditions: source organism: Ravn virus - Ravn, Kenya, 1987
readout kind: Kd

FPSNMMVVT	≥ 20 µM

Now let's try a different one.
Query :: # input sequence: GLSFLNPEK ; wanted: its Kd
Result :: ≥ 20 µM

====

Kd values for the sequences below.
- test system: HLA-B*46:01
- experiment description: IEDB peptide-MHC binding, purified MHC/direct/fluorescence; filed as Kd, often an IC50 or EC50 that approximates it; bounds were set here for any values at or beyond the usual limits of such assays
- assay conditions: source organism: Bacillus anthracis

MSDIFASEV	≥ 20 µM

Query :: What value of Kd has been reported for the following sequence? WFREDRSPV
Result :: ≥ 20 µM

====

- test system: HLA-A*32:01
- experiment description: IEDB peptide-MHC binding, purified MHC/competitive/radioactivity; filed as Kd, often an IC50 or EC50 that approximates it; bounds were set here for any values at or beyond the usual limits of such assays
- assay conditions: source organism: Dengue virus 2 Jamaica/1409/1983
readout kind: Kd (nM)
Only the number, expressed in nM, is required.

Query :: Name the reported Kd value associated with the sequence PNTNRAWNSL
Result :: 1560

====

- test system: HLA-A*69:01
- experiment description: IEDB peptide-MHC binding, purified MHC/competitive/fluorescence; filed as Kd, often an IC50 or EC50 that approximates it; bounds were set here for any values at or beyond the usual limits of such assays
- assay conditions: source organism: Bacillus thuringiensis serovar israelensis ATCC 35646
readout kind: Kd

Query :: Form field: reported Kd of ITMYVAFEQ
Result :: ≥ 20 µM

====

- test system: HLA-A*03:01
- experiment description: IEDB peptide-MHC binding, purified MHC/direct/fluorescence; filed as Kd, often an IC50 or EC50 that approximates it; bounds were set here for any values at or beyond the usual limits of such assays
- assay conditions: source organism: Comamonas sediminis
pKd: −log10 of the molar value.
readout kind: pKd

Query :: Which pKd value is on record for KSLGIDQIW ?
Result :: ≤ 4.70
